# Test system: endogenous genome targets (ACTB, HSP90AA1)
# assay_comment: Arrayed SSAP library screening, mKate knock-in assay (editing efficiency)
# Assay type: cell-based
# measurement_parameters: percent of mKate knock-in; average of HSP90 and ACTB; 3 days after transfection
# From the text: Arrayed SSAP library screening on endogenous genome targets (ACTB. HSP90AA1) using mKate knock-in assay. SSAP-encoding plasmids were purified and quantified. […] Three days after transfection, mKate positive cells and cell viability were quantified across all replicates, along with positive (original RecT SSAP) and negative (Flag-HA control protein) controls. […]
Readings of Editing Efficiency (Absolute, Average, two targets) for the listed molecules
measured_quantity: Editing Efficiency (Absolute, Average, two targets)

INSERT INTO measurements (molecule, obs_value) VALUES
  ('SSAP_193: SEQ ID NO: 362; Mesotoga sp. TolDC (protein, listed as Mesotoga sp.) KASEIASMVKKEDERRNHKPDPLAGIVKNLTSIKGEIANALPDAGITPERMIRIVVTLLRQNKSLAEAAMQNPASLLGAVMMAAQLGLDPTNGLDQCALVPRKGKVCFDIMYEGLVELGYRSDRMESIVARTVYEKDTFSLKYGLNEELVHIPYLDGDPGESKGYYMVGKLKGGGNIIVYMTKEQVHKIRDRYSVAYKAGLSGSRKDSPWFTSEDRMGEKTVVKAGFRWIPKSPIIRTALALDETAREASRLPMRN', 12.465),
  ('SSAP_191: SEQ ID NO: 360 in b312 (Table 9 prints 354); Microbacterium sp. K41 (protein, listed as Microbacterium sp.) SKDLSTAAAAAKSQPTMKDLVEAQLPAIERQLGGAMNSDAFVRAVLSEIGKSPDLMNADPKTLLGGVMLAAQLRLEIGSGLGEFYLTPRKDRGRQICLPIIGYQGMIKLALRSEYVLNVQAFLVREGDDFTYGGNSERGMFYDWTPKDFEESRPWIGVVATAKMRGGGTTWVYLTRTQVIDRRPSYWASTPWKTNEDEMVKKTAVRALAKFLPKSTDLGRALEADEAKVQHLKGVDEVQVTRLDDDAETFVVQEQDPMSRTPEEQAEDEANR', 11.75);
